B1: glmS ribozyme (parent)
chain: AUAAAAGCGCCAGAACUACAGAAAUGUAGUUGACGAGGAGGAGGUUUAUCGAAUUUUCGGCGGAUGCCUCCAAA

# Variants of: B1
# measurement-description: self-cleavage kobs at 2500 uM GlcN6P; higher = faster cleavage; RNA array
# stated-conditions: with glucosamine-6-phosphate
Variants at the floor of the assay were thinned out.
readout-kind: self-cleavage kobs at 2500 uM GlcN6P (s⁻¹)

>>> endpoint_value("G40U A52U")
"4.82e-05"
>>> endpoint_value("G32U A42G")
0.000528
>>> endpoint_value("A12U C61A G63C C70U")
"4.79e-05"
>>> endpoint_value("U57A C67G")
"3.77e-05"
>>> endpoint_value("G59A A64G")
"6.66e-05"
>>> endpoint_value("A12U A14C")
0.00261
>>> endpoint_value("G37A G38C U56G C70G")
"6.06e-05"
>>> endpoint_value("A39U G40A")
0.00537
>>> endpoint_value("A39U G66C")
0.00343
>>> endpoint_value("A48G A53G")
"8.53e-05"
>>> endpoint_value("A52G G66A")
0.000203

Origin of values: the supplement of paper PMC7125110
